Every entry's value here was drawn from the EternaBench riboswitch data.

System: MS2 coat protein
Test: apparent Kd, MS2 coat protein; higher = weaker binding; RNA-MaP array; FMN 200 µM where present
Conditions: designed as: ON switch for flavin mononucleotide; no ligand
measurement.label: apparent Kd (nM)
Number only, in nM; omit the unit.

Query string: Form field: reported apparent Kd of GCCAUCGCAUGAGGAUAUGCUCCCGUUUCGGGAGCAGAAGGCAUGUCAUAAGACAUGAGGAUCACCCAUGUAGCUAAGAUGGCA
Result string: 310

Query string: Form field: reported apparent Kd of GUAUAUCACUAAGGAUAUCUGUAAUAUGUUGAAACAUGAGGAUCACCCAUGUUCAUGUAUUUAUAGGAGAAGGUAGAGAUAUAC
Result string: 4.34

Query string: Form field: reported apparent Kd of ACAUACAUUCGAGGAUAUCGGUGAUUAAUUUUACGAGAAGGCGAUAUAAGAUUUAAUAUUUUAGACAUGAGGAUCACCCAUGUA
Result string: 27.6

Query string: Form field: reported apparent Kd of GCACUUACGUUAGGAUAUGGAUCGGAAAACGAUCCAGAAGGAAUAUGGGAACAUGAGGAUCACCCAUGUUCCACAGACAAGUGC
Result string: 43.3

Query string: Form field: reported apparent Kd of AGUGUCAUCGAGAAGGCCUCGACAUGAGGAUCACCCAUGUUGUUAUAUGGGAGGAUAUCGAUGAUACAGCUACGUUUCGUAGCA
Result string: 51.6

Query string: Form field: reported apparent Kd of GGAUGAUUAAUAGGAUAUUAUUUGUAAAUUGGUUAAGAAGGAUUAAUGAUUUAAACGACCUGUUACAUGAGGAUCACCCAUGUU
Result string: 45.1

Query string: Form field: reported apparent Kd of AACACAACAUGAAACAUGAGGAUCACCCAUGUUGUUUGUAAUCAGGAUAUGAUCUCAAGAAUGAAUUAGAAGGGAUAUGGAUUU
Result string: 31.8

----------
Tested on: MS2 coat protein
Experiment: apparent Kd, MS2 coat protein; higher = weaker binding; RNA-MaP array; FMN 200 µM where present
Details: designed as: OFF switch for flavin mononucleotide; no ligand
measurement.label: apparent Kd (nM)
Number only, in nM; omit the unit.

Query string: Form field: reported apparent Kd of ACCUCACAUGAGGAUCACCCAUGUCAGGAUAUCUGAUGUAGUCGCGUUCCCGACGCUAAGAGAAGGGACGUUGA
Result string: 40.4

Query string: Form field: reported apparent Kd of GCGAGUACGAGAGGAUAUUGACAUGAGGAUCACCCAUGUAUUUGGGAGUGUUCACUGAAUUCUUACGAGAAGGCUCGUACACGC
Result string: 244

Query string: Form field: reported apparent Kd of CUCAUGUGAGGAUAUAGUACUUCUUCUAUUAUUAUUGAGUACUAGAAGGCACAUGAGGAUCACCCAUGUAGUAC
Result string: 16

Query string: Form field: reported apparent Kd of GGGCCGUAGUAGAAGGGAUAUACGUUAGGUAUAUCAGGAUAUACAUGAGGAUCACCCAUGUUCUAACAGUGAUAGUCCUCCCUU
Result string: 15.5

----------
Test system: MS2 coat protein
Assay: apparent Kd, MS2 coat protein; higher = weaker binding; RNA-MaP array; FMN 200 µM where present
Settings: ligand present: flavin mononucleotide; designed as: OFF switch for flavin mononucleotide
Provide the reported apparent Kd of each item.
Number only, in nM; omit the unit.

Query string: Form field: reported apparent Kd of CCGCAAAAUGAGGAUAUCGUAUCGGAUACGAUACGAGAAGGCGUAACAUGAGGAUCACCCAUGUGUCCUAGCGG
Result string: 17.2

Query string: Form field: reported apparent Kd of AAUGCCAACGAAGGAUAUACAAACAUGAGGAUCACCCAUGUGUCUUUCGUGUAACUGGAAUUCGGGUAGAAGGUCGUUGACAUA
Result string: 23.2

Query string: Form field: reported apparent Kd of GUCGGAAACGACAAGUCAGCUCGUGAGGAUAUACAAUAUUAAAAGAUCACAUGAGGAUCACCCAUGUAGAAGGCACGAGCUGAU
Result string: 442

Query string: Form field: reported apparent Kd of AAUCGAUCAACAGGAUAUGCGCAAUGAUCUGAACAUGAGGAUCACCCAUGUGCAGAAGGGUUGGUCAUCUUUUGGGACGAGACA
Result string: 311

Query string: Form field: reported apparent Kd of AAGACUAGAGGAUAUACAUGAGGAUCACCCAUGUAACUGUCAGGAGACUGACGGAGAUGUAGAAGGCUAGUCAA
Result string: 34.1

Query string: Form field: reported apparent Kd of AGAAAAGCAGGAUAUAUCCGGGAUAACAUGAGGAUCACCCAUGUGACCGCUUGAUAUCCUAUAGAAGGGCUUAAGA
Result string: 51.2

Query string: Form field: reported apparent Kd of AAAAAGCGAGGAUAUACAUGAGGAUCACCCAUGUCAAAAGAAUAUAAAGAAAUAGGAAGUAGAAGGCGCAAAAA
Result string: 56

----------
System: MS2 coat protein
Test: apparent Kd, MS2 coat protein; higher = weaker binding; RNA-MaP array
Settings: designed as: OFF switch for flavin mononucleotide; no ligand
Provide the reported apparent Kd of each item.
Number only, in µM; omit the unit.

Query string: Form field: reported apparent Kd of AAAUGGAUCGAAGGAUAUCCCCAGACAUGAGGAUCACCCAUGUGAGGGUACAGUUAUUGUUAUCAGGAGAAGGUCGCAUUCAAA
Result string: 0.0103

Query string: Form field: reported apparent Kd of UAGGUGCUAGGAGGAUAUUGUGAAUUUAAUUUUCAAGAAGGCCUGAACAGACUGCACAUGAGGAUCACCCAUGUAUCCAACGUC
Result string: 0.0172

Query string: Form field: reported apparent Kd of CCACCCGACAUGAGGAUCACCCAUGUAGAUGAUCCUGUACCAUAGGAUAUAGGCGUAAGAGAGAUCUAGAAGGAUGUACAACCC
Result string: 0.108

Query string: Form field: reported apparent Kd of GACAGCAUCCGAGGAUAUAUGUACGUAAUCAAACCACAUGAGGAUCACCCAUGUCCUCUAGGUUCAUAGAAGGCGGUUUAGCGU
Result string: 0.455

Query string: Form field: reported apparent Kd of UACAAGUACUAGAAGGAUCGAACCGAAGGUGUGAUAGGAUAUAGAGACAUGAGGAUCACCCAUGUAGGAGUGCAGUCAUACAUU
Result string: 0.0279

Query string: Form field: reported apparent Kd of GACUGGAGGAGAGGAUAUGCAAAGACUCUAUUCGCAGAAGGCUCGUGCGGUCAACAUGAGGAUCACCCAUGUCUGGCGACAUGC
Result string: 0.00626

Query string: Form field: reported apparent Kd of ACAUGAGGAUCACCCAUGUGUCUCCUUUCCAUUACGAUCUUUAGAAGGGUCCGCAAACACUCUGGACAGGAUAUAAAGUAUGGC
Result string: 0.0134

----------
Test system: MS2 coat protein
Experiment: apparent Kd, MS2 coat protein; higher = weaker binding; RNA-MaP array; FMN 200 µM where present
Details: ligand present: flavin mononucleotide; designed as: ON switch for flavin mononucleotide
Provide the reported apparent Kd of each item.
Number only, in nM; omit the unit.

Query string: Form field: reported apparent Kd of GUAGCAUUGACAGGAUAUCCAUAUCCGAAAGGGACAUGAGGAUCACCCAUGUCGCGAAAGCGGUGGGAGAAGGGUCUAUGCUAC
Result string: 4.38

Query string: Form field: reported apparent Kd of GCACAUGGCAUAGGAUAUAGAACUAUACUUUAUAUAGGUAGUUACACUUAACUAGAAGGAUGAUACAUGAGGAUCACCCAUGUA
Result string: 14.5

Query string: Form field: reported apparent Kd of CCGAAACCUCAGAAGGACCACAUGAGGAUCACCCAUGUCAAGCAAAACGGUAGGAUAUGAGGGAAAAGUCGAUAUACCCGACAG
Result string: 3.93

Query string: Form field: reported apparent Kd of AAAAAAAAAACUCAGGAUAUAGAUUGUUGAACAUGAGGAUCACCCAUGUAGUGAAAAGCGAAAAACUAGAAGGGAGGAAAAAAAAA
Result string: 46

Query string: Form field: reported apparent Kd of AAAAAACAUGAGGAUCACCCAUGUCCUCGGACGUGAGGAUAUGUACAGACUUCGGUCUGUACAGAAGGCACGUCAA
Result string: 446

Query string: Form field: reported apparent Kd of GGAUGAUUAAUAGGAUAUUAUUUGUAAAUUGGUUAAGAAGGAUUAAUGAUUUAAACGACCUGUUACAUGAGGAUCACCCAUGUU
Result string: 35.2

Query string: Form field: reported apparent Kd of AGCUAAAUGUCAGGAUAUGCCCGCCAGGUGGAAGCAGAAGGGACAUACCAGACAUGAGGAUCACCCAUGUAAACUGGGUAAGAA
Result string: 126

Query string: Form field: reported apparent Kd of UUGGUUAUACAAGGAUAUCAAUUAUAUACACAUCCUACAUGAGGAUCACCCAUGUUUUAUUUUUUUGAGAAGGUGUAUUGUCGG
Result string: 29

Query string: Form field: reported apparent Kd of GUUGGUGUAGAAGGAUAUUGGUGAGGCGUCUUGUACAUGAGGAUCACCCAUGUCAUUCUGCACGCCGAGAAGGUCUGCAAUUGG
Result string: 57

Query string: Form field: reported apparent Kd of GGAGCCGGUACUGAGGAUAUUCAUAUUAAAACAUGAGGAUCACCCAUGUAGGCCAGAAGGCCUUGGGAGAAGGCAGGCCAGCUCG
Result string: 31.4

Query string: Form field: reported apparent Kd of AGAUAUAUACAUGAGGAUCACCCAUGUUAAUAGGUGUUUGUCAGAAGGCAUUAUGAGAGAAUUAAUGAGGAUAUGAAGUAUCAU
Result string: 23

Query string: Form field: reported apparent Kd of CGUCGAUACCAGAAGGACAUGAGGAUCACCCAUGUAGGAUAUGGGUGACCGGGAUGGCAGACAUGGUGCCCGGGCACAUGCGAC
Result string: 9.82

Query string: Form field: reported apparent Kd of GGGAACAUCGGAGGAUAUCAUGUAAAUACAUGAGGAUCACCCAUGUCGAUGGAGACAUCGGAGAUUGAGAAGGCCGAUGUACCG
Result string: 9.66

Query string: Form field: reported apparent Kd of UCAUCAAAUUGAACAUGAGGAUCACCCAUGUAGGAUUAGCCACAGGAUAUCCGUGCUAGAAUGUGGGAGAAGGGUGGUCACUCC
Result string: 64.5

Query string: Form field: reported apparent Kd of AAUAGUGGCGUAGGAUAUCUGCGUACAUGAGGAUCACCCAUGUCUCCCAGCCGCUGAGCUGGGACAGAGAAGGGCGACCGCAUA
Result string: 88.9

Query string: Form field: reported apparent Kd of UUGGACGUCGUAGGAUAUGUAGGAUAUUCCUACAUGAGGAUCACCCAUGUUGACAUGGAAGAAGGACAGAAGGACGAUUUCCAU
Result string: 5.41

Query string: Form field: reported apparent Kd of UUGGACGUCGUAGGAUAUGUAGGAUAUUCCUACAUGAGGAUCACCCAUGUUGACAUGGAGGAAGGACAGAAGGACGAUGUCCAU
Result string: 98

Query string: Form field: reported apparent Kd of GUGCAUACGUGAGGAUAUGUAUUAGAUAGUGGUACAGAAGGCAUGUCAGAUGACAUGAGGAUCACCCAUGUUGGCAAAAUGCGC
Result string: 10.2

Query string: Form field: reported apparent Kd of CGUAUAUGGGAGAAGGCAUGUCCCAAAGGGCCAUGAGGAUAUCCUAAGUGUACGCUUUGCGACAUGAGGAUCACCCAUGUAGCA
Result string: 5.75

Query string: Form field: reported apparent Kd of AGAUUUGUACAUGAGGAUCACCCAUGUUAAUAGGUGGUUGUCAGAAGGCAUUAAUAGAGUUUUAAUGAGGAUAUGAAUUUACAA
Result string: 803

Query string: Form field: reported apparent Kd of GUGGUCAGACAUGAGGAUCACCCAUGUGGAAUAAAUAAGGAGAAGGAUAUGCAAUAUAGGAUAUAGCAGAAGGUCUGGUUGGUG
Result string: 92.7

Query string: Form field: reported apparent Kd of UUGGAGUACGUAGGAUAUGUAGGAUUUUCCUACAUGAGGAUCACCCAUGUUAGCAUGGAAGAAGGACAGAAGGACGUGCUCCAU
Result string: 78.1

Query string: Form field: reported apparent Kd of AAAGGGAUUACGGAGGAUAUGGAAAAAAAAACAUGAGGAUCACCCAUGUCAAAAAAAAAAAAGGACCAGAAGGCCGUAAUCUCAAA
Result string: 18.9

Query string: Form field: reported apparent Kd of AACCUAUUACAGAAGGCCAGCUACAUGAGGAUCACCCAUGUCGAGUCAUGGAGGAUAUGUAGUAAUUUACUCACAGAUGAGUGA
Result string: 5.07

Query string: Form field: reported apparent Kd of CAGCUACCCGAUAUGGGUUCAUGUGCAGAAGGCCAGGUACAUGAGGAUCACCCAUGUAAAGAUAUGGAGGAUAUGUUAGUGAAU
Result string: 8.99

Query string: Form field: reported apparent Kd of GGGUACAUCGCAGGAUAUCAUGUAAAUACAUGAGGAUCACCCAUGUCGAUGGAGACAUCGGAGAUUGAGAAGGCCGAUGUACCG
Result string: 322

Query string: Form field: reported apparent Kd of CGGCCGCUACGCCGGCUCGACGCACAGGAUAUGCUGUUACAUGAGGAUCACCCAUGUGGCCAUGAGCAGAAGGGUGAUUCGCGA
Result string: 30.9

Query string: Form field: reported apparent Kd of UUGGACGUCGUAGGAUAUGUAGGAUAUUCCUACAUGAGGAUCACCCAUGUUGACAUGGUAGAAGGACAGAAGGACGAUGUCCAU
Result string: 53.4
